Target: T1, recombinant human soluble LIGHT, amino acids 74-240 (R&D Systems 664-LI-025) (human, UniProt O43557 74-240)
T1 chain: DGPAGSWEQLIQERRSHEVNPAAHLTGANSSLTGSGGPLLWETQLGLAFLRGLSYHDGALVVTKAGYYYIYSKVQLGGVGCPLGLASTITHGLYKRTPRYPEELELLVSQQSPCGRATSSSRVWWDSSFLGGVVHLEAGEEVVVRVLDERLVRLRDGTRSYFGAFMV
Experiment: cell-based or functional assay
MEASURED QUANTITY: IC50, nM soluble LIGHT (5 ng/ml; IL-8 release from HT-29 cells) (nM)
One number for each entry, in nM.

BINDER	RESULT NUMBER
3B04 (antibody, human IgG4, V domains shown, chimeric: mouse variable domains on human IgG4 HC (S-to-P and L-to-E at 248) and human CL; also called Parental 3B04; 3B04 chimeric) VH: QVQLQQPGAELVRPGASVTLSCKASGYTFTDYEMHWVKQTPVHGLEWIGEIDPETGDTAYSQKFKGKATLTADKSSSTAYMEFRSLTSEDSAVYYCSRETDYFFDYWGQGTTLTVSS VL: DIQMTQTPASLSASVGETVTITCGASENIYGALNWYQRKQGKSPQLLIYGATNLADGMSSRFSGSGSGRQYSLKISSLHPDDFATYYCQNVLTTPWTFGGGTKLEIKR	6.5
2B11 (antibody, human IgG4, V domains shown, chimeric human IgG4 (S-to-P, L-to-E at 248), human CL; also called Parental 2B11) VH: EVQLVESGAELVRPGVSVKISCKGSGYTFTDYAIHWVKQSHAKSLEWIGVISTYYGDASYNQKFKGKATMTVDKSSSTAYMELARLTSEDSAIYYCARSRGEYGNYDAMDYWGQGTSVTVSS VL: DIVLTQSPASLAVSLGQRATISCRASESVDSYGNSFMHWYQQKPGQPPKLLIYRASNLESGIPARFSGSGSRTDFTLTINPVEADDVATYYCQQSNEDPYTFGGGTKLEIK	47

Here is the next item to consider.
Give IC50, nM soluble LIGHT (5 ng/ml; IL-8 release from HT-29 cells) for the following binder: 3D12 (antibody, human IgG4, V domains shown, chimeric: mouse variable domains on human IgG4 HC (S-to-P and L-to-E at 248) and human CL; also called Parental 3D12; 3D12 chimeric) VH: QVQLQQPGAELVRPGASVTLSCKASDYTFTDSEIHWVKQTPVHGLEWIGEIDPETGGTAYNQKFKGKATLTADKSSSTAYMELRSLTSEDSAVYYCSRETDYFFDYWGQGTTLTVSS VL: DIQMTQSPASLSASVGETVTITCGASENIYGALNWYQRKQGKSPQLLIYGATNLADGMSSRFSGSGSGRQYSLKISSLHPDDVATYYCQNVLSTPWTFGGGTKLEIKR
3.4
